measurementTarget: human Siglec-7 on primary human monocyte-derived dendritic cells (human, UniProt Q9Y286 19-467)
Sequence (Q9Y286 19-467): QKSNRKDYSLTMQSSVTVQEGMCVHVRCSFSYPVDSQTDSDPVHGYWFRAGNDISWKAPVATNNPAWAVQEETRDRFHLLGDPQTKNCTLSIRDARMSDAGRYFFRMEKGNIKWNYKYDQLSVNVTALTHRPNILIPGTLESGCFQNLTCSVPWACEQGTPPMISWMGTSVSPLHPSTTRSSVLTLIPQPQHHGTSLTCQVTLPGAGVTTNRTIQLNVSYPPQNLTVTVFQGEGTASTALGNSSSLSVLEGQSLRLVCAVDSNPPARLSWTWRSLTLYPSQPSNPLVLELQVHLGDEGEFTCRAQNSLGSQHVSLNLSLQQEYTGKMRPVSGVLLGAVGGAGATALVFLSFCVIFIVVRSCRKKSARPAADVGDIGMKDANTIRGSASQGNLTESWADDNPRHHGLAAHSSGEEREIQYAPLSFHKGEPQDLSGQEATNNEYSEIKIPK
protocolDescription: cell-based or functional assay
Entries annotated with measured Fold increase in potency compared to AB-H8
Numbers only here, please. The scale is fold.

Some entries whose results are on file:
| binder | reportedValue |
| --- | --- |
| S7AB-H8.30.1 (antibody, V domains shown) VH: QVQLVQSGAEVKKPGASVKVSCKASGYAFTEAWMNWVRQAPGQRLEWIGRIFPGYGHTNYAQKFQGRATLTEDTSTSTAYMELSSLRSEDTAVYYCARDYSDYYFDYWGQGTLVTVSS VL: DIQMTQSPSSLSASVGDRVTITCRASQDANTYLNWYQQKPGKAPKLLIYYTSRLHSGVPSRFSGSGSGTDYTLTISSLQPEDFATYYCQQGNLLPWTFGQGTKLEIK | 2.7 |
| S7AB-H8.19 (antibody, V domains shown) VH: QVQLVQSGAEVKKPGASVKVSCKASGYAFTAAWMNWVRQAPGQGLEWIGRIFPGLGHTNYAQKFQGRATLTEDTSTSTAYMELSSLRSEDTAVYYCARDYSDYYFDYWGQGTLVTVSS VL: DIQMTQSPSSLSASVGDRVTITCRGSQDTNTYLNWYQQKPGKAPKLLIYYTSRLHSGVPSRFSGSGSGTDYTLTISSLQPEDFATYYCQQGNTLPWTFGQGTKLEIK | 3.5 |
| S7AB-H8.9.2 (antibody, V domains shown) VH: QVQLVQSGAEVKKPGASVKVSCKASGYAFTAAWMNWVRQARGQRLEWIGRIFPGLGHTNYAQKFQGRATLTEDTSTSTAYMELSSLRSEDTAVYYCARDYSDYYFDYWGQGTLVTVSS VL: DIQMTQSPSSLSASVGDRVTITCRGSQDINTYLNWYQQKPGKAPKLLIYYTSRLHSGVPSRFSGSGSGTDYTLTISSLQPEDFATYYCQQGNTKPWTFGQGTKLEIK | 3.1 |

Next binder, please.
Please list Fold increase in potency compared to AB-H8 recorded for the binder S7AB-H8.18 (antibody, V domains shown) VH: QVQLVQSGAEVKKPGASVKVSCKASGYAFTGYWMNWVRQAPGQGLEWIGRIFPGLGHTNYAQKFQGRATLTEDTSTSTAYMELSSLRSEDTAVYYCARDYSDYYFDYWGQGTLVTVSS VL: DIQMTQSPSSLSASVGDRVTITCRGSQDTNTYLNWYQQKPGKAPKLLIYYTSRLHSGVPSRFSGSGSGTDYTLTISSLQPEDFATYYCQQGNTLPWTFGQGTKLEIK
5
